target entity: h-DHODH (Homo sapiens, UniProt Q02127)
Construct: endogenous in cells; host or cells: U937 cells (membrane fraction, solubilised with 1% octyl glucoside)
Sequence (Q02127 whole entry): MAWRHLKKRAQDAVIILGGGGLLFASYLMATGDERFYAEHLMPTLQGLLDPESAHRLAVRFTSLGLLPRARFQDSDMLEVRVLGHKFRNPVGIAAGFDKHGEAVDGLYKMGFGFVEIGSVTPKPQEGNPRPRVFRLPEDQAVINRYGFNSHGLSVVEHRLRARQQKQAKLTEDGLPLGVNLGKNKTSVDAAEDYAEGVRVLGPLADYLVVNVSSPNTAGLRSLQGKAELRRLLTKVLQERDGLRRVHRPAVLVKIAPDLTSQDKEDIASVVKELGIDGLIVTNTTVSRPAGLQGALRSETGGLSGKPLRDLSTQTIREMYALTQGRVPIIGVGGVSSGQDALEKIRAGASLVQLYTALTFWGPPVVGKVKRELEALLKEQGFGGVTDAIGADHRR
assay: Dihydro-orotate dehydrogenase inhibition assay (U937 membrane preparations, DCIP reduction)
Format: biochemical
condition label: compound tested at 0.3 uM (footnote *); U937 membrane preparation
value kind: inhibition at 0.3 µM (%)

Example molecules with recorded inhibition at 0.3 µM:
chemical string: CCOc1cccc(-c2cc(F)c(NC(=O)c3ncccc3C(=O)O)c(F)c2)c1
target entity: h-DHODH (Homo sapiens, UniProt Q02127)
value: 44
--
chemical string: CCc1c[nH]c2ccc(-c3cc(F)c(NC(=O)c4ccccc4C(=O)O)c(F)c3)cc12
target entity: h-DHODH (Homo sapiens, UniProt Q02127)
value: 100
--
chemical string: CCSc1cccc(-c2ccc(NC(=O)c3ccccc3C(=O)O)cc2F)c1
target entity: h-DHODH (Homo sapiens, UniProt Q02127)
value: 57.9
--
chemical string: CCSc1cccc(-c2c(F)c(F)c(NC(=O)c3ccccc3C(=O)O)c(F)c2F)c1
target entity: h-DHODH (Homo sapiens, UniProt Q02127)
value: 32.9
--
chemical string: CCc1cccc(-c2cc(F)c(NC(=O)c3ccccc3C(=O)O)c(F)c2)c1
target entity: h-DHODH (Homo sapiens, UniProt Q02127)
value: 36.6

(1) O=C(O)c1ccccc1C(=O)Nc1c(F)cc(-c2cccc(OC3CC3)c2)cc1F
(2) CCOc1cccc(-c2cc(F)c(NC(=O)c3ccncc3C(=O)O)c(F)c2)c1
Hey, which is lower on measured inhibition at 0.3 µM, 1 or 2 ? Pick one and reply with its label. 2

----------
target entity: h-DHODH (Homo sapiens)
Construct: endogenous in cells; host or cells: U937 cells (membrane fraction, solubilised with 1% octyl glucoside)
assay: Dihydro-orotate dehydrogenase inhibition assay (U937 membrane preparations, DCIP reduction)
Format: biochemical
condition label: 1 uM; U937 membrane preparation
value kind: inhibition at 1 µM (%)

Consider the following illustrative entries.
chemical string: COc1cc(Cl)cc(-c2cc(F)c(NC(=O)c3ccccc3C(=O)O)c(Cl)c2)c1
units of measure: %
inhibition at 1 µM: 26.6

chemical string: CCOc1cccc(-c2cc(F)c(NC(=O)c3ccccc3C(=O)O)c(Cl)c2)c1F
units of measure: %
inhibition at 1 µM: 87.5

chemical string: CCSc1cccc(-c2cc(F)c(NC(=O)c3ccccc3C(=O)O)c(F)c2)c1
units of measure: %
inhibition at 1 µM: 84.8

(a) COc1ccc(F)c(-c2cc(F)c(NC(=O)c3ccccc3C(=O)O)c(Cl)c2)c1
(b) COc1cc(-c2cc(F)c(NC(=O)c3ccccc3C(=O)O)c(F)c2)ccc1F
Between a and b , whose recorded inhibition at 1 µM is greater? Field: selected label. Fill in the label of the entry you choose. a
(a: 73.7%, b: 12.4%)

----------
value kind: melting point

Some compounds with recorded melting point:
chemical string: CCSc1cccc(-c2ccc(NC(=O)c3ccccc3C(=O)O)cc2F)c1
value: 74 to 76 °C

chemical string: CCOc1cccc(-c2cc(F)c(NC(=O)c3ncccc3C(=O)O)c(F)c2)c1
value: 207 to 210 °C

chemical string: O=C(O)c1ccccc1C(=O)Nc1ccc(-c2cccc(OC3CC3)c2)cc1F
value: 134.5 to 137.5 °C

chemical string: CCCCOc1cccc(-c2ccc(NC(=O)c3ccccc3C(=O)O)c(F)c2)c1
value: 102 to 105 °C

chemical string: CCCCOc1cccc(-c2c(F)cc(NC(=O)c3ccccc3C(=O)O)cc2F)c1
value: 181.1 to 184.2 °C

chemical string: COc1cccc(-c2ccc(NC(=O)c3ccccc3C(=O)O)cn2)c1
value: 194 to 199 °C

chemical string: O=C(O)c1ccccc1C(=O)Nc1c(F)cc(-c2ccccc2Cl)cc1F
value: 143.5 to 145.1 °C

Attention now shifts to the item below.
melting point recorded for this compound, O=C(O)c1nccnc1C(=O)Nc1c(F)cc(-c2cccc(OCc3ccccc3)c2)cc1F , is 142 to 144.5 °C
